- Test system: Escherichia coli
- ASSAY TEXT: Antibacterial activity against Escherichia coli ATCC 25922 after 18 hrs by microbroth dilution assay
- Format: functional
- EXPERIMENTAL CONDITIONS: Escherichia coli, ATCC 25922, 18 h; read-out: MIC
METRIC NAME: MIC (µg/mL)

For orientation, consider the following solved cases.
CCN(CC)[c+]1sc2c(s1)C(c1ccc(Cl)cc1)Oc1ccc(Cl)cc1-2.F[B-](F)(F)F (centres undefined): 3.9
CCN(CC)[c+]1sc2c(s1)C(c1ccccc1)Oc1ccc(F)cc1-2.F[B-](F)(F)F (centres undefined): 62.5
CCN(CC)[c+]1sc2c(s1)C(c1ccccc1)Oc1ccccc1-2.F[B-](F)(F)F (centres undefined): 62.5

I. CCN(CC)[c+]1sc2c(s1)C(c1ccc(Cl)cc1)Oc1ccccc1-2.F[B-](F)(F)F (centres undefined)
II. CCN(CC)[c+]1sc2c(s1)C(c1ccc(I)cc1)Oc1ccc(F)cc1-2.F[B-](F)(F)F (centres undefined)
III. CCN(CC)[c+]1sc2c(s1)C(c1ccc(Br)cc1)Oc1ccccc1-2.F[B-](F)(F)F (centres undefined)
Task field, ranking: reported MIC, descending order. Lab note: record answer as labels in requested order. I, III, II

A. CC1(C)S[C@@H]2[C@H](NC(=O)[C@H](N)c3ccccc3)C(=O)N2[C@H]1C(=O)O [AMPICILLIN]
B. CCN(CC)[c+]1sc2c(s1)C(c1ccc(F)cc1)Oc1ccccc1-2.F[B-](F)(F)F (centres undefined)
From the items above, decide which of A and B has the lower MIC reading. When you have decided, please share the label of that item. A

* * *

- System: Escherichia coli
- ASSAY TEXT: Antibacterial activity against Escherichia coli ATCC 25922 after 18 hrs by microbroth dilution assay
- Format: functional
- EXPERIMENTAL CONDITIONS: Escherichia coli, ATCC 25922, 18 h; read-out: MIC
METRIC NAME: MIC (µg/mL)

CCN(CC)[c+]1sc2c(s1)C(c1ccc(F)cc1)Oc1ccc(F)cc1-2.F[B-](F)(F)F (centres undefined): 15.6
CCN(CC)[c+]1sc2c(s1)C(c1ccc(F)cc1)Oc1ccc(Cl)cc1-2.F[B-](F)(F)F (centres undefined): 15.6

1. CCN(CC)[c+]1sc2c(s1)C(c1ccc(Cl)cc1)Oc1ccc(F)cc1-2.F[B-](F)(F)F (centres undefined)
2. CCN(CC)[c+]1sc2c(s1)C(c1ccc(Br)cc1)Oc1ccc(F)cc1-2.F[B-](F)(F)F (centres undefined)
When the recorded MIC values are compared, which is smaller: that of 1 or that of 2 ? // output: label of the selected item 2
(2: 7.81 µg/mL, 1: 15.6 µg/mL)

* * *

- Tested on: Escherichia coli
- ASSAY TEXT: Antibacterial activity against Escherichia coli ATCC 25922 after 18 hrs by microbroth dilution assay
- Format: functional
- EXPERIMENTAL CONDITIONS: Escherichia coli, ATCC 25922, 18 h; read-out: MIC
METRIC NAME: MIC (µg/mL)

Guide cases for MIC, answers given:
NC[C@H]1O[C@H](O[C@H]2[C@H](O)[C@@H](O[C@H]3O[C@H](CO)[C@@H](O)[C@H](N)[C@H]3O)[C@H](N)C[C@@H]2N)[C@H](O)[C@@H](O)[C@@H]1O [KANAMYCIN]: 7.81
CCN(CC)[c+]1sc2c(s1)C(c1ccc(I)cc1)Oc1ccc(Cl)cc1-2.F[B-](F)(F)F (centres undefined): 1.95

P. CCN(CC)[c+]1sc2c(s1)C(c1ccc(Br)cc1)Oc1ccc(Cl)cc1-2.F[B-](F)(F)F (centres undefined)
Q. CCN(CC)[c+]1sc2c(s1)C(c1ccc(I)cc1)Oc1ccccc1-2.F[B-](F)(F)F (centres undefined)
Response body: label of entry with the larger MIC; valid values P , Q . Let me know the label of the one you choose. Q
